Source: patent US20250034159A1

subjectOfTest: recombinant human EGFR exon 19 deletion/C797S double mutant protein (Homo sapiens (Human), UniProt P00533, C797S/DEL746-750)
Sequence (P00533 other isoform, or with tags, fused parts or gaps C797S/del 1-668/del 746-750 limits assumed): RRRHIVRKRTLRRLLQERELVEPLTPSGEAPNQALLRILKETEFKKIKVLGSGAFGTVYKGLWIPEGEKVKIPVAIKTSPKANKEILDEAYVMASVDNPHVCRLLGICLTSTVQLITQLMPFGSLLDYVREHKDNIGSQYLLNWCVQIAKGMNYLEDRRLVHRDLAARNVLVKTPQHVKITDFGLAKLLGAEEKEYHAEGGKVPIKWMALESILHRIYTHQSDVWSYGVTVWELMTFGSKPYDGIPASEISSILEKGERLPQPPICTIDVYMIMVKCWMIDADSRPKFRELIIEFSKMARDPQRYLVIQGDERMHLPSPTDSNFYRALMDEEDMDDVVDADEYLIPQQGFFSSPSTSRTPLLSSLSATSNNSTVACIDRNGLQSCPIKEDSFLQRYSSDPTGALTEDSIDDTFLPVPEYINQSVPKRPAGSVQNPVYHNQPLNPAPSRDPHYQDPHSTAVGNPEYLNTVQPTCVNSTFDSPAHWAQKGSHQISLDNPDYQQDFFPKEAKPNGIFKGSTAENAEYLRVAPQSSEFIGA
assayMethodText: Biological Activity Assay C: biochemical assay against EGFR exon 19 deletion/C797S protein (EGFR d19/CS)
measuredAttribute: pIC50
Give bare numbers, as −log10 of the molar value.

Check out these entries, answers already filled in.
| molecule | measuredAttribute | dataValue |
| --- | --- | --- |
| Fc1ccc(-c2nn(C(F)F)cc2-c2ncnc3oc(-c4ccccc4)cc23)cc1 [Example 107] | pIC50 | 8.16 |
| O=S1(=O)CC(n2cc(-c3ncnc4oc(-c5ccncc5)cc34)c(-c3ccc(F)cc3)n2)C1 [Example 165] | pIC50 | 9.59 |
| CS(=O)(=O)[C@@H]1CC[C@H](n2cc(-c3ncnc4oc(-c5ccccc5)cc34)c(-c3ccc(F)cc3)n2)C1 (single isomer, unassigned) [Example 192] | pIC50 | 9.01 |
| O=S1(=O)CC(n2cc(-c3ncnc4oc(N5CC6(CCOC6)C5)cc34)c(-c3ccc(F)cc3)n2)C1 [Example 168] | pIC50 | 7.81 |
| O=S1(=O)CC(n2cc(-c3ncnc4oc(-c5ccncn5)cc34)c(-c3ccc(F)cc3)n2)C1 [Example 196] | pIC50 | 9.05 |
| Fc1ccc(-c2n[nH]cc2-c2ncnc3oc(-c4ccccc4)cc23)cc1 [Example 60] | pIC50 | 9.38 |

Batch request: pIC50 per item, same order as input.
1. OCCCn1cc(-c2ccnc3[nH]c(-c4nnco4)cc23)c(-c2ccc(F)cc2)n1 [Example 17]
2. CC(=O)N1CCC=C(c2cc3c(-c4cn(CC(C)(C)O)nc4-c4ccc(F)cc4)ncnc3o2)C1 [Example 208]

output:
[8.46, 9.40]

---

Answer each item with its documented pIC50.
subjectOfTest: recombinant human EGFR exon 19 deletion/C797S double mutant protein (Homo sapiens (Human), UniProt P00533, C797S/DEL746-750)
assayMethodText: Biological Activity Assay C: biochemical assay against EGFR exon 19 deletion/C797S protein (EGFR d19/CS)
Answers are plain numbers, as −log10 of the molar value.

Check out these entries, answers already filled in.
| compound | pIC50 |
| --- | --- |
| CC(=O)N1CC[C@H](n2cc(-c3ncnc4oc(-c5ccccc5)cc34)c(-c3ccc(F)cc3)n2)C1 (single isomer, unassigned) | 9.70 |
| OC1(CCn2cc(-c3ncnc4oc(-c5ccccc5)cc34)c(-c3ccc(F)cc3)n2)CC1 | 9.04 |

Batch request: pIC50 per item, same order as input.
1. OCCCn1cc(-c2ncnc3[nH]c(-c4ccccc4)nc23)c(-c2ccc(F)cc2)n1
2. O=S1(=O)CC(n2cc(-c3ncnc4oc(-c5cncnc5)cc34)c(-c3ccc(F)cc3)n2)C1
3. OCCCCn1nc(-c2ccc(F)cc2)c(-c2ncnc3[nH]c(-c4ccccc4)nc23)n1
4. CC1(Cn2cc(-c3ncnc4oc(-c5ccccc5)cc34)c(-c3ccc(F)cc3)n2)COC1
5. COC(C)(C)Cn1cc(-c2ncnc3oc(-c4ccccc4)cc23)c(-c2ccc(F)cc2)n1
6. O=S1(=O)CC(n2cc(-c3ncnc4oc(-c5cccnn5)cc34)c(-c3ccc(F)cc3)n2)C1

output:
1. 9.83
2. 8.22
3. 8.38
4. 9.12
5. 9.14
6. 8.47

Batch request: pIC50 per item, same order as input.
1. FCCn1cc(-c2ncnc3oc(-c4ccccc4)cc23)c(-c2ccc(F)cc2)n1
2. CC(C)(O)CCn1cc(-c2ncnc3oc(-c4ccccc4)cc23)c(-c2ccc(F)cc2)n1
3. N#CCCn1cc(-c2ncnc3oc(-c4ccccn4)cc23)c(-c2ccc(F)cc2)n1

output:
[9.48, 8.80, 10.09]

Batch request: pIC50 per item, same order as input.
1. CC(C)(O)CCn1cc(-c2ncnc3oc(-c4ccccc4)nc23)c(-c2ccc(F)cc2)n1
2. Fc1ccc(-c2nn([C@H]3CCCOC3)cc2-c2ncnc3oc(-c4ccccc4)cc23)cc1 (single isomer, unassigned)
3. OCCCc1nc(-c2ccc(F)cc2)c(-c2ncnc3oc(-c4ccccc4)cc23)o1
4. CC(=O)N1CC(C#Cc2cc3c(-c4cn(C5CS(=O)(=O)C5)nc4-c4ccc(F)cc4)ncnc3o2)C1

output:
1. 8.26
2. 9.16
3. 9.27
4. 8.48
